# Tested on: hind paw edema
# methodDescription: Adjuvant Arthritis Assay; Developing (percent inhibition of hind paw edema)
# Format: in vivo, female Lewis rats
# conditionLabel: Rattus norvegicus, 96 h, once daily for 4 days in 0.25% methylcellulose, paw volumes on fifth day
Reported ED50 values for the following molecules.
Kindly write the number and append the unit.

The examples below pair each entry with its known result.
{"columns": ["molecule", "target", "ED50"],
 "data": [
  ["CN1OCCC(=Cc2cc(C(C)(C)C)c(O)c(C(C)(C)C)c2)C1=O", "hind paw edema", "7 mg/kg"],
  ["CN1OC/C(=C/c2cc(C(C)(C)C)c(O)c(C(C)(C)C)c2)C1=O [Example 1 (Z-Isomer)]", "hind paw edema", "36 mg/kg"],
  ["COc1ccc2cc([C@H](C)C(=O)O)ccc2c1 [NAPROXEN, reference compound]", "hind paw edema", "28 mg/kg"]
]}

Ask: What value of ED50 has been recorded for this entry: CN1OC/C(=C\c2cc(C(C)(C)C)c(O)c(C(C)(C)C)c2)C1=O [Example 1 (E-Isomer)]
Result: 20 mg/kg

* * *

# methodDescription: LD50
# conditionLabel: rat, in vivo, po
Reported LD50 values for the following compounds.

{"columns": ["structureSmilesString", "measuredValue"],
 "data": [
  ["CN1OCCC(=Cc2cc(C(C)(C)C)c(O)c(C(C)(C)C)c2)C1=O", "> 1000 mg/kg"]
]}

Ask: What value of LD50 has been recorded for this entry: CN1OCC(=Cc2cc(C(C)(C)C)c(O)c(C(C)(C)C)c2)C1=O
Result: > 1000 mg/kg

src = patent US4892870A
